# recordedConditions: 333.15 K; 35000 kPa; Liquid

compound | readingUnit | mass density
CCCCCOC(C)=O [pentyl ethanoate] | kg/m3 | 870.2
CCCCOC(C)=O [butyl ethanoate] | kg/m3 | 873.9
CCCOC(C)=O [propyl ethanoate] | kg/m3 | 880.1
CCOC(C)=O [ethyl acetate] | kg/m3 | 891.4

----------
# recordedConditions: 298.15 K; 25000 kPa; Liquid
Entries and their mass density

compound | mass density, kg/m3
CCCCCOC(C)=O [pentyl ethanoate] | 889.6
CCCCOC(C)=O [butyl ethanoate] | 894.9
CCOC(C)=O [ethyl acetate] | 916.1
CCCOC(C)=O [propyl ethanoate] | 902.5

----------
# recordedConditions: 343.15 K; 3000 kPa; Liquid
measurementName: mass density (kg/m3)

molecule | quantitativeReadout
CCOC(C)=O [ethyl acetate] | 842
CCCCOC(C)=O [butyl ethanoate] | 832.9
CCCOC(C)=O [propyl ethanoate] | 834.9
CCCCCOC(C)=O [pentyl ethanoate] | 831.5

----------
# recordedConditions: 388.15 K; 15000 kPa; Liquid
Measured mass density accompanies every entry in the list below.
measurementName: mass density (kg/m3)

compound | readingUnit | quantitativeReadout
CCCOC(C)=O [propyl ethanoate] | kg/m3 | 801.5
CCCCCOC(C)=O [pentyl ethanoate] | kg/m3 | 802.5
CCCCOC(C)=O [butyl ethanoate] | kg/m3 | 802.4
CCOC(C)=O [ethyl acetate] | kg/m3 | 805.1

----------
# recordedConditions: 333.15 K; 100 kPa; Liquid

compound | readingUnit | mass density
CCCCOC(C)=O [butyl ethanoate] | kg/m3 | 839.6
CCCOC(C)=O [propyl ethanoate] | kg/m3 | 842.5
CCOC(C)=O [ethyl acetate] | kg/m3 | 850.4
CCCCCOC(C)=O [pentyl ethanoate] | kg/m3 | 837.8

----------
The following compounds are shown together with reported mass density values.
# recordedConditions: 358.15 K; 5000 kPa; Liquid
measurementName: mass density (kg/m3)

compound | readingUnit | quantitativeReadout
CCCCOC(C)=O [butyl ethanoate] | kg/m3 | 817.7
CCCOC(C)=O [propyl ethanoate] | kg/m3 | 818.6
CCCCCOC(C)=O [pentyl ethanoate] | kg/m3 | 816.9
CCOC(C)=O [ethyl acetate] | kg/m3 | 824.7

----------
# recordedConditions: 358.15 K; 10000 kPa; Liquid
Items are presented alongside their recorded mass density.

compound | mass density (kg/m3)
CCOC(C)=O [ethyl acetate] | 832.1
CCCOC(C)=O [propyl ethanoate] | 825.3
CCCCCOC(C)=O [pentyl ethanoate] | 822.5
CCCCOC(C)=O [butyl ethanoate] | 823.6

----------
Attribute: mass density
# recordedConditions: 318.15 K; 15000 kPa; Liquid
measurementName: mass density (kg/m3)

compound | quantitativeReadout
CCOC(C)=O [ethyl acetate] | 885.1
CCCCOC(C)=O [butyl ethanoate] | 868.5
CCCOC(C)=O [propyl ethanoate] | 874.1
CCCCCOC(C)=O [pentyl ethanoate] | 864.7

----------
# recordedConditions: 298.15 K; 3000 kPa; Liquid
Entries and their mass density

compound | mass density [kg/m3]
CCCCOC(C)=O [butyl ethanoate] | 878
CCOC(C)=O [ethyl acetate] | 896.7
CCCCCOC(C)=O [pentyl ethanoate] | 873.5
CCCOC(C)=O [propyl ethanoate] | 884.3

----------
# recordedConditions: 353.15 K; 1000 kPa; Liquid
measurementName: mass density (kg/m3)

molecule | readingUnit | quantitativeReadout
CCCCOC(C)=O [butyl ethanoate] | kg/m3 | 820.4
CCOC(C)=O [ethyl acetate] | kg/m3 | 824.3
CCCCCOC(C)=O [pentyl ethanoate] | kg/m3 | 819.9
CCCOC(C)=O [propyl ethanoate] | kg/m3 | 821.2

----------
compounds and their reported mass density
# recordedConditions: 318.15 K; 20000 kPa; Liquid

compound | mass density [kg/m3]
CCCCCOC(C)=O [pentyl ethanoate] | 868.5
CCOC(C)=O [ethyl acetate] | 889.8
CCCCOC(C)=O [butyl ethanoate] | 872.6
CCCOC(C)=O [propyl ethanoate] | 878.5

----------
mass density reference
# recordedConditions: 353.15 K; 5000 kPa; Liquid
measurementName: mass density (kg/m3)

molecule | readingUnit | quantitativeReadout
CCCOC(C)=O [propyl ethanoate] | kg/m3 | 826.9
CCCCCOC(C)=O [pentyl ethanoate] | kg/m3 | 824.4
CCCCOC(C)=O [butyl ethanoate] | kg/m3 | 825.5
CCOC(C)=O [ethyl acetate] | kg/m3 | 830.6

----------
Listed here are molecules together with their documented mass density.
# recordedConditions: 368.15 K; 3000 kPa; Liquid

molecule | mass density (kg/m3)
CCOC(C)=O [ethyl acetate] | 808.6
CCCOC(C)=O [propyl ethanoate] | 804.3
CCCCOC(C)=O [butyl ethanoate] | 804.8
CCCCCOC(C)=O [pentyl ethanoate] | 805

----------
# recordedConditions: 338.15 K; 2000 kPa; Liquid

compound | readingUnit | mass density
CCCCOC(C)=O [butyl ethanoate] | kg/m3 | 836.7
CCCOC(C)=O [propyl ethanoate] | kg/m3 | 839.2
CCOC(C)=O [ethyl acetate] | kg/m3 | 846.8
CCCCCOC(C)=O [pentyl ethanoate] | kg/m3 | 835.1

----------
# recordedConditions: 343.15 K; 2000 kPa; Liquid
measurementName: mass density (kg/m3)

molecule | measurementName | quantitativeReadout
CCCCCOC(C)=O [pentyl ethanoate] | mass density | 830.4
CCCCOC(C)=O [butyl ethanoate] | mass density | 831.7
CCCOC(C)=O [propyl ethanoate] | mass density | 833.7
CCOC(C)=O [ethyl acetate] | mass density | 840.6

----------
Parameter: mass density. Scope: all listed entries.
# recordedConditions: 333.15 K; 1000 kPa; Liquid

compound | readingUnit | mass density
CCOC(C)=O [ethyl acetate] | kg/m3 | 851.7
CCCCCOC(C)=O [pentyl ethanoate] | kg/m3 | 838.7
CCCCOC(C)=O [butyl ethanoate] | kg/m3 | 840.7
CCCOC(C)=O [propyl ethanoate] | kg/m3 | 843.6

----------
# recordedConditions: 353.15 K; 30000 kPa; Liquid
measurementName: mass density (kg/m3)

molecule | quantitativeReadout
CCCCOC(C)=O [butyl ethanoate] | 852.5
CCCCCOC(C)=O [pentyl ethanoate] | 849.8
CCOC(C)=O [ethyl acetate] | 862.7
CCCOC(C)=O [propyl ethanoate] | 856.4

----------
# recordedConditions: 318.15 K; 3000 kPa; Liquid
measurementName: mass density (kg/m3)

molecule | quantitativeReadout
CCCCOC(C)=O [butyl ethanoate] | 857.8
CCOC(C)=O [ethyl acetate] | 872.2
CCCOC(C)=O [propyl ethanoate] | 862.1
CCCCCOC(C)=O [pentyl ethanoate] | 854.4

----------
# recordedConditions: 298.15 K; 20000 kPa; Liquid
measurementName: mass density (kg/m3)

compound | quantitativeReadout
CCOC(C)=O [ethyl acetate] | 912
CCCCCOC(C)=O [pentyl ethanoate] | 886.2
CCCOC(C)=O [propyl ethanoate] | 898.7
CCCCOC(C)=O [butyl ethanoate] | 891.3

----------
Let's look at some molecules and their measured mass density.
# recordedConditions: 348.15 K; 20000 kPa; Liquid
Numbers after ± are expanded uncertainties.

molecule | mass density
CCCCOC(C)=O [butyl ethanoate] | 846.2 ± 5.5 kg/m3
CCCOC(C)=O [propyl ethanoate] | 849.5 ± 5.7 kg/m3
CCOC(C)=O [ethyl acetate] | 857.7 ± 5.5 kg/m3
CCCCCOC(C)=O [pentyl ethanoate] | 843.5 ± 5.7 kg/m3

----------
# recordedConditions: 318.15 K; 35000 kPa; Liquid

compound | readingUnit | mass density
CCOC(C)=O [ethyl acetate] | kg/m3 | 905.9
CCCCOC(C)=O [butyl ethanoate] | kg/m3 | 886.3
CCCCCOC(C)=O [pentyl ethanoate] | kg/m3 | 881.7
CCCOC(C)=O [propyl ethanoate] | kg/m3 | 893.2

----------
Entries and their mass density values follow.
# recordedConditions: 303.15 K; 3000 kPa; Liquid

compound | readingUnit | mass density
CCCCOC(C)=O [butyl ethanoate] | kg/m3 | 872.9
CCCOC(C)=O [propyl ethanoate] | kg/m3 | 878.8
CCCCCOC(C)=O [pentyl ethanoate] | kg/m3 | 868.7
CCOC(C)=O [ethyl acetate] | kg/m3 | 890.5

----------
# recordedConditions: 318.15 K; 100 kPa; Liquid
measurementName: mass density (kg/m3)

molecule | quantitativeReadout
CCCCOC(C)=O [butyl ethanoate] | 854.9
CCCOC(C)=O [propyl ethanoate] | 859.3
CCOC(C)=O [ethyl acetate] | 868.8
CCCCCOC(C)=O [pentyl ethanoate] | 851.9
